Hello, the source for this data is patent US4609645A, in case you need it.

- System: Micrococcus luteus ATCC 9341
- Assay Text: Minimum inhibitory concentration (MIC), antimicrobial activity
- Assay type: cell-based
- Particulars: ATCC9341; Micrococcus luteus ATCC 9341; heart infusion agar, pH 7, 37° C., about 20 hours; read-out: MIC
Give MIC for every item shown.

MIC of CCC1OC(=O)CC(O)C(C)C(OC2OC(C)C(O)C(N(C)C)C2O)C(CC=O)CC(C)C(OC2CCC(N(C)C)C(C)O2)C=CC(C)=CC1C (centres unmarked) , assay on Micrococcus luteus ATCC 9341, is 0.2 µg/mL

With Micrococcus luteus ATCC 9341 as the test system, CCC(=O)OC1CC(=O)OC(C)CC=CC=CC(OC2CCC(N(C)C)C(C)O2)C(C)CC(CC=O)C(OC2OC(C)C(OC3CC(C)(O)C(O)C(C)O3)C(N(C)C)C2O)C1OC (centres unmarked) [SPM III, Spiramycin III, reference compound] showed MIC of 0.4 µg/mL

Measured on Micrococcus luteus ATCC 9341, CCC1OC(=O)CC(OC(C)=O)C(C)C(OC2OC(C)C(O)C(N(C)C)C2O)C(CC=O)CC(C)C(OC2CCC(N(C)C)C(C)O2)C=CC(C)=CC1C (centres unmarked) has a documented MIC of 0.4 µg/mL

Reported Micrococcus luteus ATCC 9341 MIC for item CCC1OC(=O)CC(OC(C)=O)C(C)C(OC2OC(C)C(OC3CC(C)(O)C(O)C(C)O3)C(N(C)C)C2O)C(CC=O)CC(C)C(OC2CCC(N(C)C)C(C)O2)C=CC(C)=CC1C (centres unmarked) was 0.4 µg/mL

Form field MIC for item CCC1OC(=O)CC(O)C(C)C(OC2OC(C)C(OC3CC(C)(O)C(O)C(C)O3)C(N(C)C)C2O)C(CC=O)CC(C)C(OC2CCC(N(C)C)C(C)O2)C=CC(C)=CC1C (centres unmarked) on Micrococcus luteus ATCC 9341: 0.4 µg/mL

---

- Test system: B. cereus IFO 3001
- Assay Text: Minimum inhibitory concentration (MIC), antimicrobial activity
- Type: cell-based
- Particulars: Bacillus cereus, IFO3001; B. cereus IFO 3001; heart infusion agar, pH 7, 37° C., about 20 hours; read-out: MIC
Parameter: MIC (µg/mL)
Use µg/mL as the unit, but write only the number.

MIC for CCC1OC(=O)CC(OC(C)=O)C(C)C(OC2OC(C)C(OC3CC(C)(O)C(O)C(C)O3)C(N(C)C)C2O)C(CC=O)CC(C)C(OC2CCC(N(C)C)C(C)O2)C=CC(C)=CC1C (centres unmarked) is 3.12

For this compound ( CCC1OC(=O)CC(O)C(C)C(OC2OC(C)C(OC3CC(C)(O)C(O)C(C)O3)C(N(C)C)C2O)C(CC=O)CC(C)C(OC2CCC(N(C)C)C(C)O2)C=CC(C)=CC1C (centres unmarked) ), measured MIC is 1.56

Lab book: MIC of CCC(=O)OC1CC(=O)OC(C)CC=CC=CC(OC2CCC(N(C)C)C(C)O2)C(C)CC(CC=O)C(OC2OC(C)C(OC3CC(C)(O)C(O)C(C)O3)C(N(C)C)C2O)C1OC (centres unmarked) [SPM III, Spiramycin III, reference compound] noted as 3.12

The reported value for CCC1OC(=O)CC(OC(C)=O)C(C)C(OC2OC(C)C(O)C(N(C)C)C2O)C(CC=O)CC(C)C(OC2CCC(N(C)C)C(C)O2)C=CC(C)=CC1C (centres unmarked) in terms of MIC is 1.56

For CCC1OC(=O)CC(O)C(C)C(OC2OC(C)C(O)C(N(C)C)C2O)C(CC=O)CC(C)C(OC2CCC(N(C)C)C(C)O2)C=CC(C)=CC1C (centres unmarked) the compound record lists MIC as 1.56
